Test system: HUVEC
assay explanation: Antiproliferative activity against human HUVEC cells after 48 hrs by alamar blue based fluorescence assay
Assay type: functional
# GI50 per entry
Give your result in µM as a bare value.

Recorded GI50 (compound COc1ccc(CC2COc3cc(OC)c(OC)c(OC)c3C2=O)cc1NC(=O)[C@H](Cc1ccc(OCCCC(=O)O)cc1)NC(=O)OC(C)(C)C (stereo partly specified) ): 22

Measured GI50 of COc1ccc(CC2COc3cc(OC)c(OC)c(OC)c3C2=O)cc1OC(=O)[C@H](Cc1ccc(OCC(=O)O)cc1)NC(=O)OC(C)(C)C (stereo partly specified) : 0.012

Short answer for COc1ccc(CC2COc3cc(OC)c(OC)c(OC)c3C2=O)cc1OC(=O)[C@H](Cc1ccc(OCC(=O)NCCCOc2ccc(C(=O)c3ccc(OCc4cn(CCOCCOCCOCCNC(=O)CCCC[C@@H]5SC[C@@H]6NC(=O)N[C@@H]65)nn4)cc3)cc2)cc1)NC(=O)OC(C)(C)C (stereo partly specified) : GI50 was 0.44

----------
System: HUVEC
assay explanation: Antiproliferative activity against human HUVEC cells after 48 hrs by alamar blue based fluorescence assay
Type: functional
endpoint name: GI50

Take a look at these entries with their results.
{"columns": ["compound", "GI50"],
 "data": [
  ["COc1ccc(CC2COc3cc(OCCCC(=O)NCCCOc4ccc(C(=O)c5ccc(OCc6cn(CCOCCOCCOCCNC(=O)CCCC[C@@H]7SC[C@@H]8NC(=O)N[C@@H]87)nn6)cc5)cc4)c(OC)c(OC)c3C2=O)cc1OC(=O)[C@H](Cc1ccccc1)NC(=O)OC(C)(C)C (stereo partly drawn)", "> 100 µM"],
  ["COc1ccc(CC2COc3cc(OC)c(OC)c(OC)c3C2=O)cc1OCC(=O)NCCCOc1ccc(C(=O)c2ccc(OCc3cn(CCOCCOCCOCCNC(=O)CCCC[C@@H]4SC[C@@H]5NC(=O)N[C@@H]54)nn3)cc2)cc1 (stereo partly drawn)", "> 100 µM"]
]}

Reported GI50 ( COc1ccc(CC2COc3cc(OC)c(OC)c(OC)c3C2=O)cc1NC(=O)[C@H](Cc1ccc(OCCCC(=O)NCCCOc2ccc(C(=O)c3ccc(OCc4cn(CCOCCOCCOCCNC(=O)CCCC[C@@H]5SC[C@@H]6NC(=O)N[C@@H]65)nn4)cc3)cc2)cc1)NC(=O)OC(C)(C)C (stereo partly drawn) ) = > 100 µM

Values were extracted from ChEMBL document CHEMBL4425191.
